Every entry's value here was drawn from patent US20110053897A1.

test-system: Syk kinase (Homo sapiens)
Construct: purchased
experiment-description: Syk kinase inhibition, Caliper LabChip off-chip mobility-shift kinase assay
Assay type: biochemical
test-conditions: read-out: Syk Enzyme IC50
Listed here are compounds together with their documented IC50.
Please give a number only; it is taken to be in nM.

Please review the following examples before continuing.
- compound: "CCn1ccc2cc(Nc3cnccn3)nc(N[C@H]3CC[C@@H](O)CC3)c2c1=O [compound 356]"
  test-system: "Syk kinase (Homo sapiens)"
  IC50, nM: 10
- compound: "Cc1cc(Nc2cc3ccn(CCO)c(=O)c3c(NC(C)(C)CO)n2)ncc1F [compound 498]"
  test-system: "Syk kinase (Homo sapiens)"
  IC50, nM: 76

Form entry - test system: Syk kinase (Homo sapiens); read-out: IC50; compound: CNC(=O)CCN1CCC(c2ccc(Nc3nc(-c4cncc(OC)n4)cc4cc[nH]c(=O)c34)cc2C)CC1 [compound 161] 18

Form entry - test system: Syk kinase (Homo sapiens); read-out: IC50; compound: COc1cncc(-c2cc3cc[nH]c(=O)c3c(Nc3ccc(C4CN(C(C)=O)C4)cc3)n2)n1 [compound 149] 24

Form entry - test system: Syk kinase (Homo sapiens); read-out: IC50; compound: CCn1ccc2cc(Nc3cc(C)ccn3)nc(N[C@H]3CCC[C@@H]3O)c2c1=O [compound 422] 86.1

Form entry - test system: Syk kinase (Homo sapiens); read-out: IC50; compound: COc1ncc(-c2cc3c(F)c[nH]c(=O)c3c(Nc3ccc(N4CCOCC4)cc3)n2)cn1 [compound 430] 120

Form entry - test system: Syk kinase (Homo sapiens); read-out: IC50; compound: Cc1ccnc(Nc2cc3cc[nH]c(=O)c3c(NCC(O)c3cccc(Cl)c3)n2)c1 (stereo not shown) [compound 496] 115

Form entry - test system: Syk kinase (Homo sapiens); read-out: IC50; compound: CCNC(=O)Cn1ccc2cc(Nc3cc(C)ccn3)nc(NC(C)C)c2c1=O [compound 316] 270

====

test-system: Syk kinase (Homo sapiens, UniProt P43405)
Construct: purchased
experiment-description: Syk kinase inhibition, Caliper LabChip off-chip mobility-shift kinase assay
Format: biochemical
test-conditions: read-out: Syk Enzyme IC50
pIC50: −log10 of the molar value.
Label 1.0 for high-side pIC50 (at or above 7) and 0.0 for low-side pIC50 (below it).

Answer whether pIC50 of "Cc1ccnc(Nc2cc3cc[nH]c(=O)c3c(N[C@@H]3CCOC3)n2)c1" is greater than or equal to 7. 1.0

Answer whether pIC50 of "COCCCc1cc2cc[nH]c(=O)c2c(Nc2ccc(C3CCN(C4CC4)CC3)c(C)c2)n1" is greater than or equal to 7. 0.0

====

test-system: Syk kinase (Homo sapiens, UniProt P43405)
Construct: purchased
experiment-description: Syk kinase inhibition, Caliper LabChip off-chip mobility-shift kinase assay
Type: biochemical
test-conditions: Caliper LabChip assay; read-out: Syk Enzyme IC50
quantity-name: pIC50
pIC50 (log units): -log10 of the concentration in mol/L.

Please review the following examples before continuing.
- molecule: "CC(C)(C)Nc1nc(Nc2cc(C3CCN(CCO)CC3)ncn2)cc2ccn(CCO)c(=O)c12"
  reported-measurement: 6.94
- molecule: "CC(C)(C)Nc1nc(Nc2cc(C(C)(C)O)ncn2)cc2ccn(C3COC3)c(=O)c12"
  reported-measurement: 7.24
- molecule: "CC(C)n1ccc2cc(Nc3c[n+]([O-])ccn3)nc(N[C@H]3CC[C@@H](O)CC3)c2c1=O"
  reported-measurement: 6.98
- molecule: "CC(O)c1ccnc(Nc2cc3ccn(CC(N)=O)c(=O)c3c(NC(C)(C)C)n2)c1 (stereo not shown)"
  reported-measurement: 7.51
- molecule: "CC(C)(C)Nc1nc(Nc2cc(C(C)(C)C(=O)O)ccn2)cc2ccn(CCO)c(=O)c12"
  reported-measurement: 6.77

Form entry - test system: Syk kinase (Homo sapiens, UniProt P43405); read-out: pIC50; molecule: "CC(C)(C)Nc1nc(Nc2cc(C3(C(=O)O)CC3)ccn2)cc2ccn(CCO)c(=O)c12" 6.41

Form entry - test system: Syk kinase (Homo sapiens, UniProt P43405); read-out: pIC50; molecule: "[2H]C([2H])([2H])n1ccc2cc(Nc3cc(C)c(Cl)cn3)nc(NC(C)(C)CO)c2c1=O" 6.86

Form entry - test system: Syk kinase (Homo sapiens, UniProt P43405); read-out: pIC50; molecule: "CC1(Nc2nc(Nc3cc(C(C)(C)O)ccn3)cc3ccn(CCO)c(=O)c23)CCC1" 7.35

Form entry - test system: Syk kinase (Homo sapiens, UniProt P43405); read-out: pIC50; molecule: "O=c1c2c(NC3CCCC3)nc(Nc3cnccn3)cc2ccn1CC1(CO)COC1" 7.92

Form entry - test system: Syk kinase (Homo sapiens, UniProt P43405); read-out: pIC50; molecule: "CC(C)(C)Nc1nc(Nc2cnccn2)cc2ccn(C(C)(C)C(N)=O)c(=O)c12" 7.47

Form entry - test system: Syk kinase (Homo sapiens, UniProt P43405); read-out: pIC50; molecule: "CC(C)(C)Nc1nc(Nc2cc(N3CCC(O)CC3)ccn2)cc2ccn(CCO)c(=O)c12" 6.67

Form entry - test system: Syk kinase (Homo sapiens, UniProt P43405); read-out: pIC50; molecule: CC(N)c1ccnc(Nc2cc3ccn(CCO)c(=O)c3c(NC(C)(C)C)n2)c1 (stereo not shown) 7.28

Form entry - test system: Syk kinase (Homo sapiens, UniProt P43405); read-out: pIC50; molecule: "CC(C)(C)Nc1nc(Nc2cnccn2)cc2ccn(C3CS(=O)(=O)C3)c(=O)c12" 6.86

Form entry - test system: Syk kinase (Homo sapiens, UniProt P43405); read-out: pIC50; molecule: "CC(C)(C)Nc1nc(Nc2cc(C(C)(C)N)ccn2)cc2ccn(CCO)c(=O)c12" 6.71

Form entry - test system: Syk kinase (Homo sapiens, UniProt P43405); read-out: pIC50; molecule: "Cc1cc(-c2ccnc(Nc3cc4ccn(CCO)c(=O)c4c(NC(C)(C)C)n3)c2)ccn1" 7.19
